Test system: UL24R
METHOD NOTES: Viral plaque reduction assay, sensitivity to acyclovir
Type: cell-based, herpes simplex virus type 2
STATED CONDITIONS: Human alphaherpesvirus 2; UL24R on Vero cells, plaques after 72 hours; read-out: IC50 (50% inhibitory concentration) of acyclovir
RESULT TYPE: IC50

Can you share its IC50? I mean this compound: "Nc1nc2c(ncn2COCCO)c(=O)[nH]1" ~3 µM

---

System: HSV-2 186
METHOD NOTES: Viral plaque reduction assay, sensitivity to acyclovir
Type: cell-based, herpes simplex virus type 2
STATED CONDITIONS: Human alphaherpesvirus 2; HSV-2 186 on Vero cells, plaques after 72 hours; read-out: IC50 (50% inhibitory concentration) of acyclovir
RESULT TYPE: IC50

Can you share its IC50? I mean this compound: "Nc1nc2c(ncn2COCCO)c(=O)[nH]1" ~3000 nM

Origin of measurements: patent US20080089910A1
